Entry source: patent US20230330234A1

# experiment-summary: physchem
# settings: aqueous with cosolvent or surfactant or cyclodextrin, thermodynamic from solid
experimental-endpoint: solubility

{"columns": ["smiles-code", "experimental-endpoint", "assay-result"],
 "data": [
  ["Cc1c(-c2c(-c3ccc(F)o3)sc3ncnc(O[C@H](Cc4ccccc4OCc4ccnn4CC(F)(F)F)C(=O)O)c23)ccc(OCCN2CCN(C)CC2)c1Cl", "solubility", "> 300 µg/mL"]
]}

====

# experiment-summary: Solubility in water
Entries and their measured Solubility in water follow.

{"columns": ["compound", "unit-name", "Solubility in water"],
 "data": [
  ["CNC(=O)c1ccccc1Sc1ccc2c(/C=C/c3ccccn3)n[nH]c2c1 [Axitinib]", "µg/mL", 0.5],
  ["COc1cc(/C=C/C(=O)CC(=O)/C=C/c2ccc(O)c(OC)c2)ccc1O [Curcumin]", "µg/mL", 6],
  ["CN[C@@H]1C[C@H]2O[C@@](C)([C@@H]1OC)n1c3ccccc3c3c4c(c5c6ccccc6n2c5c31)C(=O)NC4 [Staurosporin]", "µg/mL", 40],
  ["CNC(=O)c1cc(Oc2ccc(NC(=O)Nc3ccc(Cl)c(C(F)(F)F)c3)c(F)c2)ccn1 [Regorafenib]", "µg/mL", 1],
  ["CC(C)(C)C[C@@H]1N[C@@H](C(=O)N[C@H]2CC[C@H](O)CC2)[C@H](c2cccc(Cl)c2F)[C@]12C(=O)Nc1cc(Cl)ccc12 [MI-773]", "µg/mL", 1],
  ["Cc1ccc(Nc2nccc(N(C)c3ccc4c(C)n(C)nc4c3)n2)cc1S(N)(=O)=O [Pazopanib]", "µg/mL", 40]
]}

====

# experiment-summary: Solubility in water
# settings: Solubility in water

{"columns": ["compound", "unit-name", "solubility"],
 "data": [
  ["CCCc1cc(C)[nH]c(=O)c1CNC(=O)c1cc(-c2ccnc(N3CCN(C)CC3)c2)cc2c1cnn2C(C)C", "µg/mL", 1],
  ["C[C@H]1Oc2cc(cnc2N)-c2c(nn(C)c2C#N)CN(C)C(=O)c2ccc(F)cc21", "µg/mL", 100],
  ["COc1ncc(-c2nc3c(n2C(C)C)[C@H](c2ccc(Cl)cc2)N(c2cc(Cl)cn(C)c2=O)C3=O)c(OC)n1", "µg/mL", 1],
  ["COC(=O)N[C@@H](C)CNc1nccc(-c2cn(C(C)C)nc2-c2cc(Cl)cc(NS(C)(=O)=O)c2F)n1", "µg/mL", 10],
  ["CCN(CC)CCNC(=O)c1c(C)[nH]c(/C=C2\\C(=O)Nc3ccc(F)cc32)c1C", "µg/mL", 30],
  ["O=C(c1cc(Cc2n[nH]c(=O)c3ccccc23)ccc1F)N1CCN(C(=O)C2CC2)CC1", "µg/mL", 120],
  ["CCOc1cc2ncc(C#N)c(Nc3ccc(OCc4ccccn4)c(Cl)c3)c2cc1NC(=O)/C=C/CN(C)C", "µg/mL", 6],
  ["NC(=O)c1cccc2cn(-c3ccc([C@@H]4CCCNC4)cc3)nc12", "µg/mL", 10],
  ["C=CC(=O)Nc1cc(Nc2nccc(-c3cn(C)c4ccccc34)n2)c(OC)cc1N(C)CCN(C)C", "µg/mL", 20],
  ["CNCc1ccc(-c2[nH]c3cc(F)cc4c3c2CCNC4=O)cc1", "µg/mL", 10],
  ["CCCS(=O)(=O)Nc1ccc(F)c(C(=O)c2c[nH]c3ncc(-c4ccc(Cl)cc4)cc23)c1F", "µg/mL", 0.3],
  ["CCN(CCCOc1ccc2c(Nc3cc(CC(=O)Nc4cccc(F)c4)n[nH]3)ncnc2c1)CCOP(=O)(O)O", "µg/mL", 50],
  ["Nc1ccccc1NC(=O)c1ccc(CNC(=O)OCc2cccnc2)cc1", "µg/mL", 5],
  ["CN(C)C/C=C/C(=O)Nc1cc2c(Nc3ccc(F)c(Cl)c3)ncnc2cc1O[C@H]1CCOC1", "µg/mL", 10],
  ["CC(C)Nc1cc(-c2c[nH]c(C(=O)N[C@H](CO)c3cccc(Cl)c3)c2)c(Cl)cn1", "µg/mL", 4],
  ["Cn1ncc(Cl)c1-c1cc(C(=O)N[C@H](CN)Cc2ccc(F)c(F)c2)oc1Cl", "µg/mL", 30],
  ["Cn1ncnc1[C@H]1c2n[nH]c(=O)c3cc(F)cc(c23)N[C@@H]1c1ccc(F)cc1", "µg/mL", 100],
  ["CN1CC[C@@H](NC(=O)Nc2ccc(C#N)cc2)C[C@@H]1c1nc2ccccc2[nH]1", "µg/mL", 50],
  ["Cn1cnc2c(F)c(Nc3ccc(Br)cc3Cl)c(C(=O)NOCCO)cc21", "µg/mL", 40],
  ["CO[C@@H](C)Cn1c(=O)n(C)c2cnc3ccc(-c4cncc(C(C)(C)O)c4)cc3c21", "µg/mL", 80],
  ["COc1cc(C(=O)O)ccc1NC(=O)[C@@H]1N[C@@H](CC(C)(C)C)[C@](C#N)(c2ccc(Cl)cc2F)[C@H]1c1cccc(Cl)c1F", "µg/mL", 1],
  ["COc1cc2nccc(Oc3ccc(NC(=O)C4(C(=O)Nc5ccc(F)cc5)CC4)cc3)c2cc1OC [Cabozantinib]", "µg/mL", 2],
  ["Nc1ccccc1NC(=O)c1ccc(CNc2nccc(-c3cccnc3)n2)cc1", "µg/mL", 8],
  ["C=CC(=O)N1CCC[C@@H](n2nc(-c3ccc(Oc4ccccc4)cc3)c3c(N)ncnc32)C1", "µg/mL", 20],
  ["COc1cc(Nc2c(C#N)cnc3cc(OCCCN4CCN(C)CC4)c(OC)cc23)c(Cl)cc1Cl", "µg/mL", 10],
  ["CC(C)NC[C@@H](C(=O)N1CCN(c2ncnc3c2[C@H](C)C[C@H]3O)CC1)c1ccc(Cl)cc1", "µg/mL", 50],
  ["Cn1ncc(Cl)c1-c1cc(C(=O)N[C@H](CN)Cc2cccc(F)c2)sc1Cl", "µg/mL", 7],
  ["O=C(c1ccc(F)c(F)c1Nc1ccc(I)cc1F)N1CC(O)([C@@H]2CCCCN2)C1", "µg/mL", 40],
  ["Cn1cnc2c(F)c(Nc3ccc(Br)cc3F)c(C(=O)NOCCO)cc21", "µg/mL", 50],
  ["C#Cc1cccc(Nc2ncnc3cc(OCCOC)c(OCCOC)cc23)c1", "µg/mL", 10],
  ["CC(C)(C)c1nc(-c2cccc(NS(=O)(=O)c3c(F)cccc3F)c2F)c(-c2ccnc(N)n2)s1", "µg/mL", 30],
  ["CN1CCN(c2ccc(C(=O)Nc3n[nH]c4ccc(Cc5cc(F)cc(F)c5)cc34)c(NC3CCOCC3)c2)CC1", "µg/mL", 9]
]}

====

# experiment-summary: physchem
# settings: aqueous with cosolvent or surfactant or cyclodextrin, thermodynamic from solid
experimental-endpoint: solubility at 18 h

{"columns": ["compound", "assay-result"],
 "data": [
  ["Cc1nc(Nc2ncc(C(=O)Nc3c(C)cccc3Cl)s2)cc(N2CCN(CCO)CC2)n1 [Dasatinib]", "> 300 µg/mL"],
  ["Nc1ccccc1NC(=O)c1ccc(CNc2nccc(-c3cccnc3)n2)cc1 [Mocetinostat]", "> 300 µg/mL"],
  ["Nc1ccccc1NC(=O)c1ccc(CNC(=O)OCc2cccnc2)cc1 [Entinostat]", "> 300 µg/mL"]
]}

====

Entries and their measured log10 solubility follow.
# experiment-summary: Solubility in water
# settings: Solubility in water
experimental-endpoint: log10 solubility (log10 of the value in µg/mL)

{"columns": ["molecule", "log10 solubility"],
 "data": [
  ["COc1ccc(-c2nc(N3CCOCC3)c3sc(CN(C)c4ncc(C(=O)NO)cn4)cc3n2)cn1 [Fimepinostat]", 0.30],
  ["Cc1cn(-c2cc(NC(=O)c3ccc(C)c(Nc4nccc(-c5cccnc5)n4)c3)cc(C(F)(F)F)c2)cn1", 0.30],
  ["CC(C)C[C@H](NC(=O)[C@H](Cc1ccccc1)NC(=O)c1cnccn1)B(O)O", 1.70],
  ["Cc1nc(NC(=O)N2CCC[C@H]2C(N)=O)sc1-c1ccnc(C(C)(C)C(F)(F)F)c1", 0.70],
  ["CC(C)(C)C[C@@H]1N[C@@H](C(=O)N[C@H]2CC[C@H](O)CC2)[C@H](c2cccc(Cl)c2F)[C@]12C(=O)Nc1cc(Cl)ccc12", 0.30],
  ["Cc1ccc(C(=O)Nc2ccc(CN3CCN(C)CC3)c(C(F)(F)F)c2)cc1C#Cc1cnc2cccnn12", 0.30],
  ["COc1ccc([C@@H](O)c2cc(-c3ncnc4cc(N5CCOCC5)ccc34)c(F)cc2Cl)nn1", 1.90],
  ["O=C(/C=C/c1cccc(S(=O)(=O)Nc2ccccc2)c1)NO", 1.48]
]}

====

# experiment-summary: Carrying potential of h(PG-co-PCL)60S0.95 by elemental analysis
# Format: physicochemical
# settings: calculated by elemental analysis
experimental-endpoint: Carrying potential (% wt %)

{"columns": ["compound", "unit-name", "assay-result"],
 "data": [
  ["C=CC(=O)Nc1ccc2[nH]c(=O)n(C3CCN(Cc4ccc(-c5nc6cc[nH]c(=O)c6cc5-c5ccccc5)cc4)CC3)c2c1 [Borussertib]", "% wt %", 12],
  ["CC(=O)Nc1cccc(-n2c(=O)n(C3CC3)c(=O)c3c(Nc4ccc(I)cc4F)n(C)c(=O)c(C)c32)c1 [Trametinib]", "% wt %", 2],
  ["CC(C)(C)c1nc(-c2cccc(NS(=O)(=O)c3c(F)cccc3F)c2F)c(-c2ccnc(N)n2)s1 [Dabrafenib]", "% wt %", 1]
]}
